B1: STK38L (parent)
chain: FCIDSENRIGNSGVEEIKGHPFFE

# Variants of: B1
# assayInfo: protein stability index of a GFP-peptide fusion (GPS, HEK-293T) (PSI 1-6); higher = more stable;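 also: lentivirally expressed fusions sorted by FACS into six bins by GFP to DsRed ratio, PSI derived from sequencing read proportions per bin multiplied by bin number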
# conditionsUsed: c terminus: a fixed tail appended
metric: protein stability index
Reply with just the number.

Solved cases (4 shown):
G13F = 2.95
E15T = 2.08
E6Q = 1.73
E6F = 1.46

// query protein stability index value for entry `C2R` 3

// query protein stability index value for entry `F1P` 4.45

// query protein stability index value for entry `H20V` 3.19

// query protein stability index value for entry `P21K` 2.84

// query protein stability index value for entry `F22Q` 3.1

Measured values drawn from the supplement of paper PMC10567573 for this set.
